Data origin: patent US10487092B2

For each of the compounds below, state its pIC50.
Biological target: human full-length MKNK1 (Homo sapiens (Human), UniProt Q9BUB5, T344D)
Sequence (Q9BUB5 other isoform, or with tags, fused parts or gaps T344D): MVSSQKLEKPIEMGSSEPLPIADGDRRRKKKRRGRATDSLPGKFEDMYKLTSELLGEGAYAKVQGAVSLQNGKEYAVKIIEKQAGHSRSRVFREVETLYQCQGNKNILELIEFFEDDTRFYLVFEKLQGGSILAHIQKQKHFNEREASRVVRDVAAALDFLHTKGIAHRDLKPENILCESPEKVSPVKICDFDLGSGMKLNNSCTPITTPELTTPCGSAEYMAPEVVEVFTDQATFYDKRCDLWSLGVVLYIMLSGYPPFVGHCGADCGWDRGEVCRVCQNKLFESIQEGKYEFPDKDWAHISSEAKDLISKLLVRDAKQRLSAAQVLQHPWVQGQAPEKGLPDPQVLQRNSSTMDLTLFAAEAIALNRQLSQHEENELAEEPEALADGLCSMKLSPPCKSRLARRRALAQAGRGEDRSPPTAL
Assay: MKNK1 kinase high ATP assay (TR-FRET)
Type: biochemical
Settings: high ATP (2 mM), 15 min preincubation with enzyme; read-out: MKNK1 IC50
Scale: pIC50 equals -log10([C]), with [C] in mol/L.

Which value of pIC50 has been reported for CN(C)[C@@H]1CCN(C(=O)[C@H]2CCc3c(sc4ncnc(Nc5ccn6nccc6c5)c34)C2)C1 in the records?
7.92

Record request: pIC50 value, item CCN(C)C(=O)[C@H]1CCc2c(sc3ncnc(Nc4cc5ccnn5cc4OC)c23)C1
9.00

# get_value(readout='pIC50', item= CN(C)CCCN(C)C(=O)[C@H]1CCc2c(sc3ncnc(Nc4ccn5nccc5c4)c23)C1 )
7.89

Need pIC50 of CCN(CCOC)C(=O)[C@H]1CCc2c(sc3ncnc(Nc4cc5ccnn5cc4Cl)c23)C1 , thanks.
8.15

Quick check: pIC50 of COc1cn2nccc2cc1Nc1ncnc2sc3c(c12)CC[C@H](C(=O)N1CCN(C)CC1)C3 ?
9.00

Suppose we examine the compound O=C([C@H]1CCc2c(sc3ncnc(Nc4cc5ccnn5cc4Cl)c23)C1)N1C[C@@H]2C[C@H]1CO2 ; what pIC50 value has been reported?
7.66

Fill blank: measured pIC50 of the compound CCN(C)C(=O)[C@H]1CCc2c(sc3ncnc(Nc4cc5ccnn5cc4Cl)c23)C1 is ____.
7.96

So what's the measured pIC50 for this one? CCCCN(C)C(=O)[C@H]1CCc2c(sc3ncnc(Nc4cc5ccnn5cc4Cl)c23)C1
7.82

Entry O=C([C@H]1CCc2c(sc3ncnc(Nc4ccn5nccc5c4)c23)C1)N1CCC1 : reported pIC50 = ?
7.59

Param item = COc1cn2nccc2cc1Nc1ncnc2sc3c(c12)CC[C@H](C(=O)N(C)CCO)C3 ; retrieve measured pIC50.
8.52

Given O=C([C@H]1CCc2c(sc3ncnc(Nc4ccn5nccc5c4)c23)C1)N1CCC(F)(F)C1 , state its recorded pIC50.
7.15

For O=C([C@H]1CCc2c(sc3ncnc(Nc4ccn5nccc5c4)c23)C1)N1C[C@@H]2C[C@H]1CO2 , what is its reported pIC50?
7.04

For the compound O=C([C@H]1CCc2c(sc3ncnc(Nc4ccn5nccc5c4)c23)C1)N1C[C@H]2C[C@@H]1CO2 , what pIC50 is on record?
7.25

Requested field: pIC50. Item: COc1cn2nccc2cc1Nc1ncnc2sc3c(c12)CC[C@H](C(=O)N1CC(C#N)C1)C3
9.00

I'd like to know its pIC50. The compound in question is COc1cn2nccc2cc1Nc1ncnc2sc3c(c12)CC[C@H](C(=O)NC1(C)CCC1)C3
8.40

Need pIC50, item C[C@@H]1COC[C@H](C)N1C(=O)[C@H]1CCc2c(sc3ncnc(Nc4ccn5nccc5c4)c23)C1
7.77
